experimentalDetails: in vitro
setupConditions: human, hela cells, % viability
I'd be grateful if you could share measured viability at 28.5 h, 10 µM for these entries.
Answers are plain numbers, in %.

Previously resolved entries follow.
Cc1nc2n(CCN3CCCCC3)c3ccccc3n2n1 [CBK278258C]: 91.5
COc1cccc(OCC(=O)NCC(c2ccsc2)N2CCCC2)c1 (centres unmarked) [CBK304630]: 89.6
CN(C)CCNC(=O)NC(c1ccccc1)c1ccccc1 [CBK263505C]: 104

For each entry beneath this line, provide reported viability at 28.5 h, 10 µM.
1. Cc1ccc(N2CCCN(C(=O)CCc3ccsc3)CC2)nn1 [CBK304573]
2. O=C(O)/C(Cl)=C(\Cl)C(=O)N1CCC2(CC1)OCCc1c2[nH]c2ccccc12 [CBK047035]

Solution:
[91.1, 85]

###

experimentalDetails: in vitro
setupConditions: human, hela cells, % viability
I'd be grateful if you could share measured viability at 28.5 h, 10 µM for these entries.
Answers are plain numbers, in %.

Cc1cccc(CN(CC(C)(C)CN)C(=O)Nc2ccc(-c3ccccc3)cc2)n1 [CBK002453C]: 86.7
Cc1cccc2cc3c(nc12)OCCN(C)C3: 89.1
COc1ccc2nc(NC(=N)NC(=S)Nc3ccc(Cl)cc3)nc(C)c2c1: 88.3
Cc1cc(C(F)(F)F)nc(NCc2ccco2)n1: 105
C=C(C)Cn1c(Cc2c[nH]c3ccccc23)nnc1SCC(C)C [CBK200087T]: 98.6

For each entry beneath this line, provide reported viability at 28.5 h, 10 µM.
1. CC(C)OC(=O)N1CCC(CNc2ncc(-c3ccc(S(C)(=O)=O)cc3)cn2)CC1
2. CC(C(=O)Nc1cccc(N2CCNCC2)c1)c1ccccc1 (stereo not drawn) [CBK004770T]
3. Cc1oc(C(C)(C)C)cc1C(=O)Nc1ccc(C(F)(F)F)cc1
4. CC(=O)N1CCc2c(c3cccc(Br)c3n2Cc2ccccc2)C1

Solution:
1: 99.1; 2: 95.6; 3: 87; 4: 93.9

###

experimentalDetails: in vitro
setupConditions: human, hela cells, % viability
assayEndpoint: viability at 28.5 h, 10 µM (%)
One number for each entry, in %.

COc1ccc(Nc2cc(-c3cccc(N)c3)ncn2)c(C)c1 [CBK091035]: 97.1
Cc1c(NS(=O)(=O)c2cc(C(=O)O)c(Cl)cc2Cl)c(=O)n(-c2ccccc2)n1C [CBK296123]: 90.3
CCCCN1CCC(C(=O)Oc2ccc(OC)c3ccccc23)CC1 [CBK122682]: 97.2
Cc1ccc(OCc2cc(-c3ccco3)on2)c([N+](=O)[O-])n1 [CBK233261]: 98.8
Cc1cccc(C)c1N(C1CCNCC1)S(=O)(=O)c1ccc2c(c1)CCO2 [CBK153668T]: 99.1
OCc1ccccc1-c1nccnc1NCc1ccco1 [CBK037098]: 94.5

For each entry beneath this line, provide reported viability at 28.5 h, 10 µM.
1. O=C(O)CCC(=O)N[C@H]1CCN2C(=O)c3cc(-c4ccc(Cl)cc4)ccc3NC(=O)[C@H]12 [CBK289275]
2. Cc1nc(C(=O)N2CCn3nc(C(O)Cc4ccccc4)cc3C2)cs1 (stereo not shown) [CBK307214]
3. O=C(c1ccc2ncsc2c1)N1CCN(S(=O)(=O)c2ccc(C(F)(F)F)cc2)CC1 [CBK295285]
4. CCC1CCCCN1C(=O)c1cccc(OC)c1 (stereo not shown) [CBK081504]
5. CC(=O)c1ccc(-c2cnc(N)c(NC3CCCCC3)n2)s1 [CBK063596]
6. O=C(COc1ccc(NS(=O)(=O)c2ccc3c(c2)Cc2ccccc2-3)cc1)N1CCOCC1 [CBK266030]
7. CC(C)(CN)CN(Cc1ccc(-c2ccccc2)cc1)C(=O)Nc1ccccc1C(C)(C)C [CBK002476C]

Solution:
[115, 98.5, 98.2, 98, 106, 101, 94.2]

###

experimentalDetails: in vitro
setupConditions: human, hela cells, % viability
assayEndpoint: viability at 28.5 h, 10 µM (%)
Give bare numbers, in %.

For each entry beneath this line, provide reported viability at 28.5 h, 10 µM.
1. CN1CCCN(Cc2ccc([N+](=O)[O-])s2)CC1 [CBK261558]
2. c1ccc2nc(N3CCCC3)c(OC3CCNC3)nc2c1 (centres unmarked) [CBK115288]

Solution:
94
99.9

For each entry beneath this line, provide reported viability at 28.5 h, 10 µM.
1. COc1ccc2[nH]c3c(c2c1)CCN(C(=O)CNCC(=O)O)C31CCN(CCOc2ccccc2)C1 (centres unmarked) [CBK082782T]
2. CC(C)N1CCC(=NNC(=O)COc2ccc(Cl)cc2Cl)CC1 [CBK262614]
3. O=C(O)CCCCCN1C(=O)CC(c2ccc(Cl)cc2)CC1=O [CBK287245]
4. Cc1cc(-c2sc(N)nc2-c2cccs2)on1 [CBK284492]
5. CSCc1nnc(SCc2ccccc2Oc2ccccc2)o1 [CBK296743]

Solution:
114
83.2
104
87.9
99.2

For each entry beneath this line, provide reported viability at 28.5 h, 10 µM.
1. COCc1nnc(Sc2ccc(C(F)(F)F)cn2)s1 [CBK115219]
2. COc1ccc(OCCNC(=O)c2ccc(C)nc2NCCCn2ccnc2)cc1 [CBK076385]
3. c1ccc(OCc2nn3c(Cn4cnc5ccccc54)nnc3s2)cc1 [CBK268446]
4. O=C(Cn1nnc2ccccc2c1=O)NC1CCN2CCCCC12 (centres unmarked) [CBK305589]
5. Cc1cc2nc(C3CCCN3C(=O)CN3CCCCC3)[nH]c2cc1C (centres unmarked) [CBK282944]
6. COc1ccc(-c2n[nH]c(=S)n2CC(=O)N2CCN(c3cccc(C)c3)CC2)cc1 [CBK295352]
7. CSCCCNC(=O)N1CCN(c2ccccc2)CC1 [CBK155170]
8. CC(C)Nc1nc2ccccc2nc1Sc1ccncc1 [CBK115250]

Solution:
1: 100; 2: 117; 3: 99.2; 4: 105; 5: 91.3; 6: 88.6; 7: 96.5; 8: 102

###

experimentalDetails: in vitro
setupConditions: human, hela cells, % viability
I'd be grateful if you could share measured viability at 28.5 h, 10 µM for these entries.

For each entry beneath this line, provide reported viability at 28.5 h, 10 µM.
1. CN1CCN(c2nc(-c3ccco3)cn3ccnc23)CC1
2. CCCCN(C)c1c(CC)nc2ccc(C(=O)Nc3ccc(OC)c(OC)c3)cn12

Solution:
1: 83.7%; 2: 95.5%

For each entry beneath this line, provide reported viability at 28.5 h, 10 µM.
1. CC(c1ccc(Cl)cc1Cl)N(C)C(=O)c1ccc(S(C)(=O)=O)cc1 (stereo not shown)
2. Cc1ccc2cc(CNc3ccc4c(c3)-c3ccccc3S(=O)(=O)N4)c(=O)[nH]c2c1
3. COc1ccc([N+](=O)[O-])cc1NC(=O)c1cc(-c2cccnc2)nc2ccc(C)cc12
4. COc1ccc(-c2nc(C3CCNCC3)n3ccccc23)cc1
5. O=C(NCc1ccccn1)C(=O)N/N=C/c1ccccc1O
6. C[C@@H](NC(=O)CCN1C(=O)[C@@H]2Cc3ccccc3CN2C1=O)C(=O)O

Solution:
["113%", "70.6%", "86.8%", "92.9%", "85.4%", "93.7%"]

For each entry beneath this line, provide reported viability at 28.5 h, 10 µM.
1. COCCCNC(=O)c1cnn2c(C)c(Cc3ccccc3Br)c(C)nc12
2. CC1(C)CC(=O)C=C(C(=O)NCc2cccs2)O1
3. CCC(NC1CCc2nc(C)cn2C1)c1ccccc1O (stereo not shown)
4. CN1C[C@@H](NS(=O)(=O)c2ccc(C#N)cc2)C[C@H]1c1nc(-c2ccncc2)no1
5. O=C(Nc1ccncc1)c1cnc2cc(C(F)(F)F)ccc2c1O [CBK116633T]
6. N#Cc1cccc(NC(=O)NC[C@H]2C[C@@H]3CC[N@]2C[C@@H]3CN2CCCCC2)c1

Solution:
101%
97.5%
85.8%
86.9%
92.1%
99.5%

For each entry beneath this line, provide reported viability at 28.5 h, 10 µM.
1. CC1=CC(C)C(C(=O)O)C(C(=O)NCc2cccnc2)C1 (stereo not shown)
2. COc1cncc(-c2ccc(N3CCN(c4ccccc4C#N)CC3)nc2)c1
3. c1cnc2[nH]c([C@H]3CCCO3)c(CN3CCCCC3)c2c1
4. COc1ccc(C(NC(=O)CCc2ccccc2)c2ccc3cccnc3c2O)cc1 (stereo not shown)
5. OCCNc1nc2cc(Cl)ccc2[nH]1

Solution:
1: 113%; 2: 107%; 3: 87.7%; 4: 86%; 5: 101%

###

experimentalDetails: in vitro
setupConditions: human, hela cells, % viability
assayEndpoint: viability at 28.5 h, 10 µM (%)
Numbers only, in %.

Previously resolved entries follow.
COc1ccc([C@@]23CC[C@@H](NC(=O)Nc4ccc(F)c(F)c4)C[C@@H]2N(C)CC3)c(F)c1OC: 102
O=C(NC[C@H]1CC[C@H](c2cc(C(=O)N3CCOCC3)c3ccccc3n2)CC1)C1CCCC1: 89.9
CNc1cc(N2CCN(S(=O)(=O)c3ccc(C)cc3)CC2)ccc1[N+](=O)[O-]: 104
Cc1cc2ccccc2n2c(=O)n(CC(=O)N3CCCCCC3)nc12: 82.3
COC(=O)c1ccc(N2CCN(Cc3nc(C)no3)C(C)C2)cc1 (centres unmarked): 92.3

For each entry beneath this line, provide reported viability at 28.5 h, 10 µM.
1. Cc1csc2c(C3CCCN(C(=O)C4CC4)C3)nc(C)n12 (centres unmarked)
2. CC(C)CN1C(=O)COC[C@@H]1[C@H](O)c1ccc(NC(=O)c2cccnc2)cc1
3. COCCOC(=O)N1CCC(N(C)Cc2ccc(-c3ccc(S(C)(=O)=O)cc3)nc2)CC1 [CBK165258T]

Solution:
1. 87.1
2. 105
3. 96.7
